The measurements presented in this section are drawn from the supplement of paper PMC9233669.

- Tested on: biotinyl-Phe-oxazolone
- assay_comment: self-aminoacylation, catalytic enhancement (BFO) (fold over background); higher = more active; k-Seq, kA / k0A0; sequences stand for … in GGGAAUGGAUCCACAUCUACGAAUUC…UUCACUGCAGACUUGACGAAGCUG
This sample holds only a part of the variants without activity.
readout_name: self-aminoacylation

[[record]]
seq = "AUUCACCUAGUUCAUCGGGUA [Fam2.2 aminoacylation ribozyme variant]"
readout_name = "self-aminoacylation"
result = 5.42

[[record]]
seq = "CCGCACUUCAACCAAUCGGUC [Fam1B.1 aminoacylation ribozyme variant]"
readout_name = "self-aminoacylation"
result = 148

[[record]]
seq = "CCACACUUAAAGCAAUAGGUC [Fam1B.1 aminoacylation ribozyme variant]"
readout_name = "self-aminoacylation"
result = 1.24

[[record]]
seq = "CUACUUCAGACAAUCGGUUUG [Fam1A.1 aminoacylation ribozyme variant]"
readout_name = "self-aminoacylation"
result = 0.819

[[record]]
seq = "AAGUUUGCUAAUCGUCGCGAG [Fam3.1 aminoacylation ribozyme variant]"
readout_name = "self-aminoacylation"
result = 1.8

[[record]]
seq = "AUUACCCUGGUCAGCGAGUGU [Fam2.1 aminoacylation ribozyme variant]"
readout_name = "self-aminoacylation"
result = 15.4

[[record]]
seq = "CCUUACUUCAAGCAAUCGGUC [Fam1B.1 aminoacylation ribozyme variant]"
readout_name = "self-aminoacylation"
result = 31.6

[[record]]
seq = "AUUCCCCUAGGUCAUCGGGUC [Fam2.2 aminoacylation ribozyme variant]"
readout_name = "self-aminoacylation"
result = 22.8

[[record]]
seq = "CCACACUUAAAGCAAUCUGUC [Fam1B.1 aminoacylation ribozyme variant]"
readout_name = "self-aminoacylation"
result = 0.686

[[record]]
seq = "AUUCAGCAAGGUCAUCGGGUG [Fam2.2 aminoacylation ribozyme variant]"
readout_name = "self-aminoacylation"
result = 47.9

[[record]]
seq = "CUACUUCAGACAAUCGUUCUG [Fam1A.1 aminoacylation ribozyme variant]"
readout_name = "self-aminoacylation"
result = 0.453

[[record]]
seq = "AUUACCCUGGUCACAGAGUGA [Fam2.1 aminoacylation ribozyme variant]"
readout_name = "self-aminoacylation"
result = 54.1

[[record]]
seq = "AUUCACUUAGGUCAUCUGGUG [Fam2.2 aminoacylation ribozyme variant]"
readout_name = "self-aminoacylation"
result = 12.6

[[record]]
seq = "CCACAGUUCAAGCAAUCGGGC [Fam1B.1 aminoacylation ribozyme variant]"
readout_name = "self-aminoacylation"
result = 10

[[record]]
seq = "CGACUUCAAACAAUCGGUCUA [Fam1A.1 aminoacylation ribozyme variant]"
readout_name = "self-aminoacylation"
result = 12.7

[[record]]
seq = "AAGAUUGCUAAUGGUCGCAAG [Fam3.1 aminoacylation ribozyme variant]"
readout_name = "self-aminoacylation"
result = 1.11

[[record]]
seq = "ACUACGCUGGUCAUCGAGUGA [Fam2.1 aminoacylation ribozyme variant]"
readout_name = "self-aminoacylation"
result = 35.1

[[record]]
seq = "CUACUUCACACAAUUGGUCUG [Fam1A.1 aminoacylation ribozyme variant]"
readout_name = "self-aminoacylation"
result = 0.431

